experiment: NCI Yeast Anticancer Drug Screen. Data for the sgs1 mgt1 strain (AID 161);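 further: 0% = growth of cultures given vehicle only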; details: S. cerevisiae sgs1 mgt1 strain, at 50.0 µM, stronger effect = higher value
Compounds without any hit were thinned out: in the full panel of roughly 79,000, 15% have a hit.
I'd appreciate it if you could supply growth inhibition values for the items below.
Answers are plain numbers, in %.

A selection of reference data follows.
{"molecule": "O=[N+]([O-])c1cccc2cccc([N+](=O)[O-])c12", "measured endpoint": "growth inhibition", "assay value": -10.3}
{"molecule": "NC(=S)N=C(N)N", "measured endpoint": "growth inhibition", "assay value": -6.25}
{"molecule": "CC12CCC(O)CC1CCC1C2CCC2(C)C(C3=CC(=O)OC3)CCC12 (stereo not drawn)", "measured endpoint": "growth inhibition", "assay value": 30.6}
{"molecule": "C[C@]12CC[C@H](O)C[C@@H]1CC[C@@H]1[C@@H]2CC[C@]2(C)C(=O)/C(=C/O)C[C@@H]12", "measured endpoint": "growth inhibition", "assay value": 87}
{"molecule": "CC1OC(O[C@H]2C[C@@H](O)[C@]3(CO)[C@H]4[C@H](O)C[C@]5(C)[C@@H](C6=CC(=O)OC6)CC[C@]5(O)[C@@H]4CC[C@]3(O)C2)C(O)C(O)C1O (stereo partly drawn)", "measured endpoint": "growth inhibition", "assay value": 5.05}
{"molecule": "CC(C)CCON=C(N)N", "measured endpoint": "growth inhibition", "assay value": -13.7}
{"molecule": "NC1=C(N2CC2)C(=O)C(N)=C(N2CC2)C1=O", "measured endpoint": "growth inhibition", "assay value": -8.4}
{"molecule": "COc1ccc(CC2C3=C(CCCC3)CCN2C)cc1 (stereo not drawn)", "measured endpoint": "growth inhibition", "assay value": 28.6}
{"molecule": "CCOP(=O)(OCC)/C(C#N)=C/c1ccc(Br)cc1", "measured endpoint": "growth inhibition", "assay value": 92.8}
{"molecule": "O=C1C=C2c3ccccc3CC(C(=O)O)C2CC1 (stereo not drawn)", "measured endpoint": "growth inhibition", "assay value": -3.45}

The following molecules each have a reported value; give each one's growth inhibition.
1. NC1=NC(=O)C(c2ccccc2)(c2ccccc2)O1
2. COc1c2c(nc3ccccc13)-c1cc3c(c(=O)n1C2)COC(=O)C3(O)CC(=O)N1CCOCC1 (stereo not drawn)
3. CC(=O)OC1CC2(O)C(CCC3(C)C(c4ccc(=O)oc4)CCC32O)C2(C)C1=CC(O)C1OC12 (stereo not drawn)

Response:
1. 5.95
2. 0.2
3. -12.4

The following molecules each have a reported value; give each one's growth inhibition.
1. CS(=O)(=O)CS(=O)(=O)OCCF
2. C[P+](CCl)(CCl)CCl

Response:
1. -10.6
2. -11.7
